These entries and their values trace back to patent US20230235004A1.

Molecular target: T1, mouse MAdCAM expressed on cells (mouse, UniProt Q61826 22-405)
T1 construct: whole, on cells
T1 sequence (looked up): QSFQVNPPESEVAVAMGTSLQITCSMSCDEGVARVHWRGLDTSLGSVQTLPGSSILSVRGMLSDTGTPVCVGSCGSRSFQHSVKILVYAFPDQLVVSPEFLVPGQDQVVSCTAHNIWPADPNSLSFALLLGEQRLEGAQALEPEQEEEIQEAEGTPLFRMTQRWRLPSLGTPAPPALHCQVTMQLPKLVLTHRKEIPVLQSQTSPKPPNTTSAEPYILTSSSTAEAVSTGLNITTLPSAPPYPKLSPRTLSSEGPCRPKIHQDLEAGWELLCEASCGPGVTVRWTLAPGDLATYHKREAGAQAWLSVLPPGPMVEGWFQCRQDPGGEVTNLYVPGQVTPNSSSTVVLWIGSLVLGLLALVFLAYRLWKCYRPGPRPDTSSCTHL
Experiment: cell binding
PROPERTY: binding result

Reference set, count: 4
{"BINDER": "MAdCAM antibody Table 1 clone 65 (scFv) scFv: QVQLVQSGAEVKKPGASVKVSCKASGYTFTRHWIHWVRQAPGQGLEWMGWINVKTGGAGYAQKFQGRVTMTRDTSTSTVYMELSSLRSEDTAVYYCARESSGWYGTDVWGQGTTVTVSSGGGGSGGGGSGGGGSGGGGSDIQMTQSPSSLSASVGDRATITCRASQSISNYLAWYQQKPGKAPKLLIYAASSLQSGVPSRFSGSGSGTDFTLTISSLQPEDFATYYCQQSNSFPLTFGGGTKVEIK", "binding result": "binds"}
{"BINDER": "MAdCAM antibody Table 1 clone 55 (scFv) scFv: QVQLVQSGAEVKKPGASVKVSCKASGYTFTSYYMHWVRQAPGQGLEWMGIIDPSGGSTSYAQKFQGRVTMTRDTSTSTVYMELSSLRSEDTAVYYCAREEWSSGGVGYFDYWGQGTLVTVSSGGGGSGGGGSGGGGSGGGGSDIQMTQSPSSLSASVGDRVTITCRASQGISSYLAWYQQKPGKAPKLLIYATSSLQTGVPSRFSGSGSGTDFTLTISSLQPEDFATYYCQQTYSIPITFGQGTRLEIK", "binding result": "no binding"}
{"BINDER": "MAdCAM antibody Table 1 clone 43 (scFv) scFv: EVQLLESGGGLVQPGGSLRLSCAASGFTFDDFAMHWVRQAPGKGLEWVSGISGNGDSRYYADSVKGRFTISRDNSKNTLYLQMNSLRAEDTAVYYCARDASYGGNYGMDVWGQGTTVTVSSGGGGSGGGGSGGGGSGGGGSDIQMTQSPSSLSASVGDRVTITCQASQDIRNYLNWYQQKPGKAPKLLIYKASTLESGVPSRFSGSGSGTDFTLTISSLQPEDFATYYCQQANSFPLTFGPGTKVDIK", "binding result": "no binding"}
{"BINDER": "MAdCAM antibody Table 1 clone 29 (scFv) scFv: QVQLVQSGAEVKKPGASVKVSCKASGYTFTSYYMHWVRQAPGQGLEWMAWMNPNSGNTGYAQKFQGRVTMTRDTSTSTVYMELSSLRSEDTAVYYCARDYDFWSGSLGYWGQGTLVTVSSGGGGSGGGGSGGGGSGGGGSDIQMTQSPSSLSASVGDRVTITCRASQGISNYLAWYQQKPGKAPKLLIYAASSLQSGVPSRFSGSGSGTDFTLTISSLQPEDFATYYCQQSYSTPWTFGQGTKVEIK", "binding result": "no binding"}

Now let's try a different one.
INPUT: Please look up its binding result: MAdCAM antibody Table 1 clone 8 (scFv) scFv: EVQLLESGGGLVQPGGSLRLSCAASGFMFGDYAMHWVRQAPGKGLEWVSAISGSGGSTYYADSVKGRFTISRDNSKNTLYLQMNSLRAEDTAVYYCAKDLVVAGIWYFDLWGRGTLVTVSSGGGGSGGGGSGGGGSGGGGSDIQMTQSPSSLSASVGDRVTITCRASQGISNNLNWYQQKPGKAPKLLIYDASSLESGVPSRFSGSGSGTDFTLTISSLQPEDFATYYCQQTHSFPSTFGQGTKLEIK
OUTPUT: no binding
